The entries below are paired with their reported MHC Class I expression (MFI HLA A/B/C) on transduced primary T cells (MFI HLA A/B/C).
# target.entity: major histocompatibility complex (MHC) Class I
Please reply with the number alone, leaving off any unit.

Answered examples (4):
[[record]]
binder = "E19 (protein) TTQKVDFKEPACNVTFAAEANECTTLIKCTTEHEKLLIRHKNKIGKYAVYAIWQPGDTTEYNVTVFQGKSHKTFMYTFPFYEMCDITMYMSKQYKLWPPQNCVENTGTFCCTAMLITVLALVCTLLYIKYKSRRSFIEEKKMP"
endpoint_result = 14800

[[record]]
binder = "ICP47 (protein) MSWALEMADTFLDTMRVGPRTYADVRDEINKRGREDREAARTAVHDPERPLLRSPGLLPEIAPNASLGVAHRRTGGTVTDSPRNPVTR"
endpoint_result = 5940

[[record]]
binder = "US11 (protein) MPELSLTLFDEPPPLVETEPLPPLSDVSEYRVEYSEARCVLRSGGRLEALWTLRGNLSVPTPTPRVYYQTLEGYADRVPTPVEDVSESLVAKRYWLRDYRVPQRTKLVLFYFSPCHQCQTYYVECEPRCLVPWVPLWSSLEDIERLLFEDRRLMAYYALTIKSAQYTLMMVAVIQVFWGLYVKGWLHRHFPWMFSDQW"
endpoint_result = 14600

[[record]]
binder = "US6 (protein) ERSSRDPKTLLSLSPRQQACVPRTKSHRPVCYNDTGDCTDADDSWKQLGEDFAHQCLQAAKKRPKTHKSRPNDRNLEGRLTCQRVRRLLPCDLDIHPSHRLLTLMNNCVCDGAVWNAFRLIERHGFFAVTLYLCCGITLLVVILALLCSITYESTGRGIRR"
endpoint_result = 9500


Give the measured MHC Class I expression (MFI HLA A/B/C) on transduced primary T cells (MFI HLA A/B/C) of US2 (protein) MNNLWKAWVGLWTSMGPLIRLPDGITKAGEDALRPWKSTAKHPWFQIEDNRCYIDNGKLFARGSIVGNMSRFVFDPKADYGGVGENLYVHADDVEFVPGESLKWNVRNLDVMPIFETLALRLVLQGDVIWLRCVPELRVDYTSSAYMWNMQYGMVRKSYTHVAWTIVFYSINITLLVLFIVYVTVDCNLSMMWMRFFVC . 14500
